# Tested on: SF-295 CNS
# procedure summary: NCI-60 one-dose screen, 48 h
# experimental context: 10 µM unless noted
# Procedure: Cells are grown in 96 well plates and exposed to the test compound for 48 hours. Compounds are tested at a single concentration, which is 10^-5 M for most compounds. The reported endpoint is percent growth (GI% or GIPRCNT), where numbers from 0 - 100% represent growth inhibition, and numbers from -100% - 0 represent cell death. For example, a value of 40 represents 60% growth inhibition. A value of 0 means no net growth occurred over the course of the experiment. […]
The panel holds about 83,000 compounds, 20% with a hit somewhere; the sample as a whole holds those more often. Activity calls are given as the source filed them. How the source made its calls: active means growth percent below 10; inactive means the rest.
Result category, one only: 1.0 (active), 0.0 (inactive)

Known results for molecules:
INSERT INTO measurements (molecule, class_name) VALUES
  ('O=S1(=O)N(Cc2ccccc2)[C@@H](Cc2ccccc2)C2O[C@H]2[C@H](Cc2ccccc2)N1Cc1ccccc1 (some centres undefined)', 0.0),
  ('O=C(Nc1ccc(I)cc1F)c1cc(F)ccc1O', 1.0);

Q: In this assay, the call recorded for Cc1cc(OC(=O)c2ccc([N+](=O)[O-])cc2)nc2[nH]c(=O)sc12 was what?
A: 0.0

Q: Try O=c1oc2ccc(Cl)cc2c(=O)n1-c1ccc(I)cc1F next.
A: 1.0

Q: Try CCCCCCCCCCCCCCn1cc(C2=C(c3coc4ccc(OC)cc34)C(=O)NC2=O)c2ccccc21 next.
A: 0.0

Q: Try O=C1NC(=O)C(=Cc2cn(Cc3cn(Cc4ccc(Cl)cc4Cl)nn3)c3ccccc23)C(=O)N1 next.
A: 0.0

====

Reported growth values for the following compounds.
# Test system: UACC-62 melanoma
# procedure summary: NCI-60 one-dose screen, 48 h (100 = growth as untreated, 0 = no growth, -100 = all killed)
# experimental context: 10 µM unless noted
The panel holds about 83,000 compounds, 20% with a hit somewhere; the sample as a whole holds those more often.
Write down the numeric answer in % and omit the unit.

INSERT INTO measurements (mol, target_or_test_system, unit_spec, experimental_value) VALUES
  ('O=c1nc2sc3nc4ccccc4cc3cc-2s1', 'UACC-62 melanoma', '%', 116);

Now, please, on to the next compound.
Q: Any idea what growth came out for CCCc1c(C)c2sc(=O)[nH]c2[nH]c1=O on UACC-62 melanoma?
A: 105

====

# Test system: HOP-62 NSCLC
# procedure summary: NCI-60 one-dose screen, 48 h (100 = growth as untreated, 0 = no growth, -100 = all killed)
# experimental context: 10 µM unless noted
The panel holds about 83,000 compounds, 20% with a hit somewhere; the sample as a whole holds those more often.
Reported growth values for the following compounds.
Write down the numeric answer in % and omit the unit.

Some solved entries appear below for comparison.
INSERT INTO measurements (compound, experimental_value) VALUES
  ('COc1nccc2cc3c(=O)n4c(cc5ccccc54)c(=O)n3c12', 82.3),
  ('COc1ccc(N(C)c2nc(N)nc3sc4c(c23)CCCC4)cc1', 28.3),
  ('Cc1cccc2c(=O)c3c(sc12)c(NCCN)nc1ccccc13', -64.6),
  ('O=C(NCc1ccco1)C1CN(c2ccc(Cl)cc2)N(c2ccc(Cl)cc2)C1=O (stereo unspecified)', 48.6),
  ('O=c1oc2ccc(I)cc2c(=O)n1-c1ccc(I)cc1F', -8.24);

Now, please, on to the next compound.
Q: # growth lookup, item NC1C(N)C(N)C1N (stereo unspecified)
A: 104
